- tested target: Purine nucleoside phosphorylase (Homo sapiens)
- Sequence (P00491 whole entry): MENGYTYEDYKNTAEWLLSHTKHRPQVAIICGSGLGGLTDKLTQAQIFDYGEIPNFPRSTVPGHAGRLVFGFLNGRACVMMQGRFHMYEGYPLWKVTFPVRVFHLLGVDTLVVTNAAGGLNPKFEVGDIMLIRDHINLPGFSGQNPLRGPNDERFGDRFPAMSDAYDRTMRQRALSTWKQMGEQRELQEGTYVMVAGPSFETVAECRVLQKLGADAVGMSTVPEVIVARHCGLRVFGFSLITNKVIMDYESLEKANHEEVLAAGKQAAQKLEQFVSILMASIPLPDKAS
# IC50 per record follows
measured attribute: IC50

{"structure smiles string": "Nc1nc(O)c2ncn(Cc3ccccc3)c2n1", "reported value": "29.6 µM"}
{"structure smiles string": "Nc1nc(O)c2nc(N)n(Cc3ccccc3)c2n1", "reported value": "0.47 µM"}

Cited source: ChEMBL document CHEMBL1125439
